Test system: CCRF-CEM leukemia
Assay: NCI tumour cell line growth inhibition, 48 h
Reported TGI values for a set of compounds

O=c1c2c3c(sc2nc(N/N=C/c2ccc(Br)cc2)n1Cc1ccccc1)CCCC3 :: > 100 µM

Now examine the next entry.
Record "CC/C(=C(/c1ccc(O)cc1)c1ccc(OCCN2CCCCC2)cc1)c1ccc(OC)cc1" . Reported TGI: 5.09 µM

====

Test system: OVCAR-4 ovarian
Assay: NCI tumour cell line growth inhibition, 48 h; in the data active means GI50 below about 0.43 µM; inactive means the rest
Output constraint: value belongs to active, inactive

Solved cases below.
COc1cc(OC)c(NC(=O)c2cc3ccccc3cc2O)cc1Cl :: inactive
CCN(CC)CCCC(C)N=c1cc(Nc2cc(=NC(C)CCCN(CC)CC)c3cc(OC)ccc3o2)oc2ccc(OC)cc12 (stereo not given) :: inactive
O=C(NO)c1ccc(Cn2c(=O)n(-c3ccccc3F)c(=O)c3ccccc32)cc1 :: inactive
C[C@H]1[C@H]2[C@H]3CC[C@@H]4[C@@]5(C)C/C(=C/c6cccnc6)C(=O)C(C)(C)[C@@H]5CC[C@@]4(C)[C@]3(C)CC[C@]23CO[C@]1(C)[C@@H](C(=O)/C=C\c1cccnc1)C3 :: inactive

Check the results log: what was the call for "COc1ccc(-c2c(-c3cc(OC)c(OC)c(OC)c3)noc2N)cc1" ? active

====

System: SW-620 colon
Test: NCI tumour cell line growth inhibition, 48 h; in the data active = GI50 below about 0.43 µM; inactive = the rest
Output constraint: value belongs to y for active, n for inactive

Solved cases below.
O=C1c2ccccc2-c2c1c1c(O)cccc1n2-c1ccccc1 :: n
CCN(CC)CCCC(C)N=c1cc(Nc2cc(=NC(C)CCCN(CC)CC)c3cc(OC)ccc3o2)oc2ccc(OC)cc12 (centres undefined) :: n
C=C1C(=O)O[C@@H]2C1C[C@@H](O)C(=C)CC/C=C(\C)CCC[C@H](C)[C@H]2OC(C)=O (some centres undefined) :: n
N#CS.N=C=S.N=C=S.[Cu+2].[NH2-].[NH2-].[NH2-].[NH2-].c1ccc2ncccc2c1 :: n
COc1cc(OC)c(NC(=O)c2cc3ccccc3cc2O)cc1Cl :: n
CCC[CH2][Sn]1([CH2]CCC)[O]C(=O)c2ccc(C)cc2[O]1 :: y

Check the results log: what was the call for "O=C(NCc1ccncc1)C12CC3CC(C1)CC(c1ccc(Cl)cc1)(C3)C2" ? n

Check the results log: what was the call for "CCCC(=O)O.CCCC(=O)O.CCCC(=O)O.CCCC(=O)O.[Rh].[Rh]" ? y

Check the results log: what was the call for "CC/C(=C(/c1ccc(O)cc1)c1ccc(OCCN2CCCCC2)cc1)c1ccc(OC)cc1" ? n

Check the results log: what was the call for "O=c1c2c3c(sc2nc(N/N=C/c2ccc(Br)cc2)n1Cc1ccccc1)CCCC3" ? n

Check the results log: what was the call for "Cc1ccc(-c2nc(N3CCCNCC3)c3oc(-c4ccccc4)nc3n2)cc1" ? n

Check the results log: what was the call for "O=C(/C(=C/c1ccc([N+](=O)[O-])cc1)SCc1ccc(F)cc1)c1ccc(Cl)cc1" ? n

Check the results log: what was the call for "COc1ccc(-c2nc(N3CCN(C(=O)C4CCCCC4)CC3)c3c4c(sc3n2)CCCC4)cc1" ? n

Check the results log: what was the call for "COc1cccc2c1c(C1=C(c3cn(C)c4ccccc34)C(=O)NC1=O)cn2C" ? n

Check the results log: what was the call for "O=C(NN=C1CCCCC1)c1[nH]c2ccc(F)cc2c1-c1ccccc1" ? n

Check the results log: what was the call for "CC(=O)[C@@]1(O)[C@H](C)C[C@H]2[C@@H]3C=C(C)C4=Cc5c(cnn5-c5ccccc5)C[C@]4(C)[C@H]3[C@@H](O)C[C@@]21C" ? n

Check the results log: what was the call for Cc1cc(Oc2ccc3nc(COc4ccc(CC5SC(=O)NC5=O)cc4)n(C)c3c2)cc(C)c1N (centres undefined) ? n

Check the results log: what was the call for "CCCCCCc1nc2nc(Cl)c(Cl)nc2[nH]1" ? n

Check the results log: what was the call for "CC1=C([Te]c2ccc(O)cc2)C(=O)c2ccccc2C1=O" ? n
